In this section we review reported pIC50 values for a set of compounds.
Test system: BJ
Assay: Cytotoxicity against human BJ cells assessed as cell survival after 72 hrs by calcein-AM assay
Type: cell-based
pIC50: −log10 of the molar value.

IN: Param item = CC(C)[C@@H](C)[C@H](O)[C@@H](O)[C@@H](C)[C@H]1CC[C@H]2[C@@H]3CC(=O)[C@H]4C[C@H](F)CC[C@]4(C)[C@H]3CC[C@]12C ; retrieve measured pIC50.
OUT: 4.34

Others:
IN: Param item = C[C@]12CC[C@H]3[C@@H](CC(=O)[C@@]4(F)C[C@@H](O)CC[C@]34C)[C@@H]1CC[C@@H]2O ; retrieve measured pIC50.
OUT: < 4.30

IN: Then C[C@]12CC[C@@H](F)C[C@@H]1C(=O)C[C@@H]1[C@@H]2CC[C@]2(C)C(=O)CC[C@@H]12 ?
OUT: < 4.30

====

Test system: BJ
Test: Cytotoxicity against human BJ cells assessed as cell survival after 72 hrs by calcein-AM assay
Format: cell-based
In this section we review reported IC50 values for a set of compounds.

IN: Param item = CC(C)[C@@H](C)/C=C/[C@@H](C)[C@H]1CC[C@H]2[C@@H]3CC(=O)[C@H]4C[C@H](F)CC[C@]4(C)[C@H]3CC[C@]12C ; retrieve measured IC50.
OUT: > 50 µM

IN: Then C[C@]12CC[C@H]3[C@@H](CC(=O)[C@@]4(F)C[C@H](F)CC[C@]34C)[C@@H]1CC[C@@H]2O ?
OUT: > 50 µM

IN: Then C[C@]12CC[C@H]3[C@@H](CC(=O)[C@@]4(F)C[C@H](O)[C@H](O)C[C@]34C)[C@@H]1CC[C@@H]2O ?
OUT: > 50 µM

IN: Then CC(=O)O[C@H]1CC[C@H]2[C@@H]3CC(=O)[C@@]4(F)C[C@@H](O)CC[C@]4(C)[C@H]3CC[C@]12C ?
OUT: > 50 µM

IN: Then C[C@]12CC[C@@H](F)C[C@@H]1C(=O)C[C@@H]1[C@@H]2CC[C@]2(C)[C@@H](OC(=O)c3ccccc3)CC[C@@H]12 ?
OUT: > 50 µM

Alright, here's another compound for you.
IN: Param item = CC(C)[C@@H](C)[C@@H](O)[C@H](O)[C@@H](C)[C@H]1CC[C@H]2[C@@H]3CC(=O)[C@H]4C[C@H](F)CC[C@]4(C)[C@H]3CC[C@]12C ; retrieve measured IC50.
OUT: 45.9 µM

====

System: RPMI-8226
Assay: Cytotoxicity against human RPMI 8226 cells assessed as cell survival after 72 hrs by calcein-AM assay
Assay type: functional, cell-based
Conditions: RPMI-8226, 72 h
pIC50: −log10 of the molar value.
recorded-endpoint: pIC50

Field: example entries. Status: answers known.
IN: Param item = C[C@]12CC[C@@H](F)C[C@@H]1C(=O)C[C@@H]1[C@@H]2CC[C@]2(C)C(=O)CC[C@@H]12 ; retrieve measured pIC50.
OUT: < 4.30

IN: Then CC(C)[C@@H](C)[C@H](O)[C@@H](O)[C@@H](C)[C@H]1CC[C@H]2[C@@H]3CC(=O)[C@H]4C[C@H](F)CC[C@]4(C)[C@H]3CC[C@]12C ?
OUT: 4.63

IN: Then C[C@]12CC[C@H]3[C@@H](CC(=O)[C@@]4(F)C[C@H](O)[C@H](O)C[C@]34C)[C@@H]1CC[C@@H]2O ?
OUT: < 4.30

IN: Then C[C@]12CC[C@H](O)C[C@@H]1C(=O)C[C@@H]1[C@@H]2CC[C@]2(C)[C@@H](OC(=O)c3ccccc3)CC[C@@H]12 ?
OUT: < 4.30

IN: Then C[C@]12CC[C@H]3[C@@H](CC(=O)[C@@]4(F)CC=CC[C@]34C)[C@@H]1CC[C@@H]2O ?
OUT: < 4.30

IN: Then C[C@]12CC[C@H]3[C@@H](CC(=O)[C@@]4(F)C[C@@H](O)[C@@H](O)C[C@]34C)[C@@H]1CC[C@@H]2O ?
OUT: 4.34

Alright, here's another molecule for you.
IN: Param item = CC(=O)O[C@H]1CC[C@H]2[C@@H]3CC(=O)[C@@]4(F)C[C@@H](O)CC[C@]4(C)[C@H]3CC[C@]12C ; retrieve measured pIC50.
OUT: < 4.30
